- test_system: Serine/threonine-protein kinase BRSK1 (Homo sapiens) (UniProt Q8TDC3)
- Sequence (Q8TDC3 whole entry): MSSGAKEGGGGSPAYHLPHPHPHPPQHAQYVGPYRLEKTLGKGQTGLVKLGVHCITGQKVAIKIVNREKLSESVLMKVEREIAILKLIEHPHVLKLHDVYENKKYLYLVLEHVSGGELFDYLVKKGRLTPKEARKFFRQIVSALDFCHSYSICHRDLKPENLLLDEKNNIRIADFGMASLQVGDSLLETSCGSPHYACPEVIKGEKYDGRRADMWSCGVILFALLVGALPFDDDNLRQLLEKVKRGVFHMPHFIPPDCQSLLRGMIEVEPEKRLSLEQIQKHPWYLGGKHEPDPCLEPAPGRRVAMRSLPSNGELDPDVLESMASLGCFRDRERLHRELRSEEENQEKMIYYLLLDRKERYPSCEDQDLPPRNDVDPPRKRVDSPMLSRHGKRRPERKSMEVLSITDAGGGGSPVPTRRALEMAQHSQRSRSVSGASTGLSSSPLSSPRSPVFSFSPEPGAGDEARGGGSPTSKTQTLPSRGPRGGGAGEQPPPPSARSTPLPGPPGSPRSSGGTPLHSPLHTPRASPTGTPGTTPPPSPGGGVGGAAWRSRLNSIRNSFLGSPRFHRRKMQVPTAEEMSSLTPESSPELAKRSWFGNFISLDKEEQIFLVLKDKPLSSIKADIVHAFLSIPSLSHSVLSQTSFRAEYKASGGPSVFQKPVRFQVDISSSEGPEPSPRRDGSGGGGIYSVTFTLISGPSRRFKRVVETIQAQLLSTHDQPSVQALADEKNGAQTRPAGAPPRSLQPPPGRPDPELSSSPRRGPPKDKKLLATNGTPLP
- conditions: at 0.1 µM
- Description: GSK_PKIS: BRSK1 mean inhibition at 0.1 uM [Nanosyn]

[
  {
    "entry_smiles": "FC(F)(F)CNc1nccc(-c2cnn3ncccc23)n1",
    "unit_symbol": "%",
    "inhibition": 1.54
  },
  {
    "entry_smiles": "CS(=O)(=O)CCNCc1ccc(-c2ccc3ncnc(Nc4ccc(OCc5ccccc5)cc4)c3c2)o1",
    "unit_symbol": "%",
    "inhibition": 1.11
  },
  {
    "entry_smiles": "COc1cccc(-n2ncc3c(N/N=C/c4ccc(C(=O)NCCN(C)C)cc4)ncnc32)c1",
    "unit_symbol": "%",
    "inhibition": 23.5
  },
  {
    "entry_smiles": "O=C(O[C@H]1CN[C@H](C#Cc2cc3ncnc(Nc4ccc5c(ccn5Cc5cc(F)ccc5F)c4)c3s2)C1)N1CCOCC1",
    "unit_symbol": "%",
    "inhibition": 1.2
  },
  {
    "entry_smiles": "NC(=O)c1ccc2c(-c3ccnc(NCCCO)n3)c(-c3ccc(F)cc3)nn2c1",
    "unit_symbol": "%",
    "inhibition": 2.91
  },
  {
    "entry_smiles": "Cn1c(-c2nonc2N)nc2cnccc21",
    "unit_symbol": "%",
    "inhibition": 2.34
  },
  {
    "entry_smiles": "COc1ccc(Nc2ncc(-c3ccccc3)o2)cc1OC",
    "unit_symbol": "%",
    "inhibition": 1.32
  },
  {
    "entry_smiles": "Fc1cccc(COc2ccc(Nc3ncncc3C#Cc3ccccc3)cc2Cl)c1",
    "unit_symbol": "%",
    "inhibition": -0.12
  },
  {
    "entry_smiles": "CNC(=O)c1sc(-n2cnc3cc(OC)c(OC)cc32)cc1OCc1ccccc1C(F)(F)F",
    "unit_symbol": "%",
    "inhibition": 0.35
  },
  {
    "entry_smiles": "Cc1ccc(-c2cc3c(NC(=O)C4CC4)ncnc3o2)cc1",
    "unit_symbol": "%",
    "inhibition": 2.59
  },
  {
    "entry_smiles": "N#Cc1ccc2c(-c3ccnc(NC4CC4)n3)c(-c3ccc(F)cc3)nn2c1",
    "unit_symbol": "%",
    "inhibition": -0.28
  },
  {
    "entry_smiles": "COc1cc2c(cc1Nc1nc(Nc3cccc(F)c3C(N)=O)c3cc[nH]c3n1)N(C(=O)CN1CCN(C(C)C)CC1)CC2",
    "unit_symbol": "%",
    "inhibition": 2.82
  },
  {
    "entry_smiles": "CCn1c(-c2nonc2N)nc2cncc(C(=O)NCCNC)c21",
    "unit_symbol": "%",
    "inhibition": 0.66
  },
  {
    "entry_smiles": "O=C(Nc1n[nH]c2nnc(-c3cccnc3)cc12)C1CC1",
    "unit_symbol": "%",
    "inhibition": -0.56
  },
  {
    "entry_smiles": "CCS(=O)(=O)c1ccc(OC)c(Nc2ncc(-c3cccc(F)c3)o2)c1",
    "unit_symbol": "%",
    "inhibition": 1.15
  },
  {
    "entry_smiles": "Cc1c2ccc(N(C)c3ccnc(Nc4cccc(S(N)(=O)=O)c4)n3)cc2nn1C",
    "unit_symbol": "%",
    "inhibition": 3.47
  },
  {
    "entry_smiles": "COc1cc(N2CCN(C(C)C)CC2)ccc1Nc1nc(Nc2cccc3ncccc23)c2cc[nH]c2n1",
    "unit_symbol": "%",
    "inhibition": -0.07
  },
  {
    "entry_smiles": "OCCCNc1nccc(-c2c(-c3ccc(F)cc3)nn3cc(C(F)(F)F)ccc23)n1",
    "unit_symbol": "%",
    "inhibition": 1.56
  },
  {
    "entry_smiles": "CCCNc1cccc(-n2ncc3c(N/N=C/c4ccncc4)ncnc32)c1",
    "unit_symbol": "%",
    "inhibition": 2.58
  },
  {
    "entry_smiles": "COc1cccc(Nc2nccc(-c3cnn4ncccc34)n2)c1",
    "unit_symbol": "%",
    "inhibition": 0.63
  },
  {
    "entry_smiles": "COc1ccccc1-c1cc(/C=C2\\C(=O)Nc3ncc(Br)cc32)cc(Br)c1O",
    "unit_symbol": "%",
    "inhibition": 4.73
  },
  {
    "entry_smiles": "CCOc1ccc2c(-c3ccnc(Nc4cc(OC)cc(C(F)(F)F)c4)n3)cnn2n1",
    "unit_symbol": "%",
    "inhibition": 0.53
  },
  {
    "entry_smiles": "N#Cc1cccc(Nc2ncc(-c3ccccc3)o2)c1",
    "unit_symbol": "%",
    "inhibition": -1.88
  },
  {
    "entry_smiles": "COC(=O)Nc1nc2ccc(Oc3ccc(NC(=O)Nc4cc(C(F)(F)F)ccc4F)cc3)cc2s1",
    "unit_symbol": "%",
    "inhibition": -0.58
  },
  {
    "entry_smiles": "NS(=O)(=O)c1ccc(N/N=C2\\C(=O)Nc3ccc(C(=O)NCc4ccncc4)cc32)cc1",
    "unit_symbol": "%",
    "inhibition": 6.67
  },
  {
    "entry_smiles": "COc1cc(N2CCN(C(C)C)CC2)ccc1Nc1nc(Nc2cccc(F)c2C(=O)O)c2cc[nH]c2n1",
    "unit_symbol": "%",
    "inhibition": -0.39
  }
]
